# assay.procedure: Single dose oral pharmacokinetic study
# Format: in vivo
# assay.conditions: mouse, mice, 30 mg/kg, plasma, read-out: Mice oral PK @30 mg/kg Cmax
Cmax less than 10000 ng/mL is fulfilled; Cmax greater than or equal to 10000 ng/mL is not fulfilled.

Use these answered entries as a reference point.
CC(C)(CC(=O)O[C@H]1CC[C@]2(C)[C@H]3CC[C@@H]4[C@H]5[C@H](C6(C)CC6)CC[C@]5(C(=O)N5CCC[C@H]5c5ncc(-c6cccc(F)c6)[nH]5)CC[C@@]4(C)[C@]3(C)CC[C@H]2C1(C)C)C(=O)O: not fulfilled
C=C(C)[C@@H]1CC[C@]2(C(=O)N3CCC[C@H]3c3ncc(-c4ccc(OC)cc4)[nH]3)CC[C@]3(C)[C@H](CC[C@@H]4[C@@]5(C)CC[C@H](OC(=O)CC(C)(C)C(=O)O)C(C)(C)[C@@H]5CC[C@]43C)[C@@H]12: fulfilled
CC(C)(CC(=O)O[C@H]1CC[C@]2(C)[C@H]3CC[C@@H]4[C@H]5[C@H](C6(C)CC6)CC[C@]5(C(=O)N5CCC(c6ncc(-c7ccccc7)[nH]6)CC5)CC[C@@]4(C)[C@]3(C)CC[C@H]2C1(C)C)C(=O)O: fulfilled

Report whether reported Cmax is lower than 10000 ng/mL (strictly) for "C=C(C)[C@@H]1CC[C@]2(C(=O)N3CCC[C@H]3c3nnc(-c4ccccc4)o3)CC[C@]3(C)[C@H](CC[C@@H]4[C@@]5(C)CC[C@H](OC(=O)[C@H]6C[C@@H](C(=O)O)C6(C)C)C(C)(C)[C@@H]5CC[C@]43C)[C@@H]12"
not fulfilled

Dear colleague, could you confirm whether Cmax of "C=C(C)[C@@H]1CC[C@]2(C(=O)N3CCC[C@H]3c3ncc(-c4ccc(F)cc4)[nH]3)CC[C@]3(C)[C@H](CC[C@@H]4[C@@]5(C)CC[C@H](OC(=O)CC(C)(C)CC(=O)O)C(C)(C)[C@@H]5CC[C@]43C)[C@@H]12" falls below 10000 ng/mL? Thanks.
not fulfilled

Just wondering, is Cmax of "C=C(C)[C@@H]1CC[C@]2(C(=O)N3C[C@H](OCCOC)C[C@H]3c3nc(C(C)(C)C)c[nH]3)CC[C@]3(C)[C@H](CC[C@@H]4[C@@]5(C)CC[C@H](OC(=O)[C@H]6C[C@@H](C(=O)O)C6(C)C)C(C)(C)[C@@H]5CC[C@]43C)[C@@H]12" below 10000 ng/mL?
fulfilled

Bench note: check whether "C=C(C)[C@@H]1CC[C@]2(C(=O)N3CCC[C@H]3c3ncc(C(F)(F)F)[nH]3)CC[C@]3(C)[C@H](CC[C@@H]4[C@@]5(C)CC[C@H](OC(=O)[C@H]6C[C@@H](C(=O)O)C6(C)C)C(C)(C)[C@@H]5CC[C@]43C)[C@@H]12" shows Cmax below 10000 ng/mL
not fulfilled

====

# assay.procedure: Single dose oral pharmacokinetic study
# Type: in vivo
# assay.conditions: mouse, mice, 30 mg/kg, plasma, read-out: Mice oral PK @30 mg/kg AUC 0-t
parameter: AUC(0-t) (µg·h/mL)
Give bare numbers, in µg·h/mL.

CC(C)(CC(=O)O[C@H]1CC[C@]2(C)[C@H]3CC[C@@H]4[C@H]5[C@H](C6(C)CC6)CC[C@]5(C(=O)N5CCC(c6ncc(-c7ccccc7)[nH]6)CC5)CC[C@@]4(C)[C@]3(C)CC[C@H]2C1(C)C)C(=O)O [Compound 68]: 23.5
CC(C)(CC(=O)O)CC(=O)O[C@H]1CC[C@]2(C)[C@H]3CC[C@@H]4[C@H]5[C@H](C6(C)CC6)CC[C@]5(C(=O)N5CCC[C@H]5c5ncc(-c6cccc(F)c6)[nH]5)CC[C@@]4(C)[C@]3(C)CC[C@H]2C1(C)C [Compound 64]: 105
Cc1nnc(C(C)C)n1C1CCN(C(=O)[C@]23CC[C@@H](C4(C)CC4)[C@@H]2[C@H]2CC[C@@H]4[C@@]5(C)CC[C@H](OC(=O)[C@H]6C[C@@H](C(=O)O)C6(C)C)C(C)(C)[C@@H]5CC[C@@]4(C)[C@]2(C)CC3)CC1 [Compound 58]: 104
Cc1nnc(C(C)C)n1C1CC2CCC(C1)N2C(=O)[C@]12CC[C@@H](C3(C)CC3)[C@@H]1[C@H]1CC[C@@H]3[C@@]4(C)CC[C@H](OC(=O)CC(C)(C)C(=O)O)C(C)(C)[C@@H]4CC[C@@]3(C)[C@]1(C)CC2 (some centres unmarked) [Compound 71]: 298
Cc1nnc(C(C)C)n1C1CC2CCC(C1)N2C(=O)[C@]12CC[C@@H](C3(C)CC3)[C@@H]1[C@H]1CC[C@@H]3[C@@]4(C)CC[C@H](OC(=O)[C@H]5C[C@@H](C(=O)O)C5(C)C)C(C)(C)[C@@H]4CC[C@@]3(C)[C@]1(C)CC2 (some centres unmarked) [Compound 60]: 295
CC(C)(CC(=O)O[C@H]1CC[C@]2(C)[C@H]3CC[C@@H]4[C@H]5[C@H](C6(C)CC6)CC[C@]5(C(=O)N5CCC[C@H]5c5ncc(-c6cccc(F)c6)[nH]5)CC[C@@]4(C)[C@]3(C)CC[C@H]2C1(C)C)C(=O)O [Compound 65]: 203
C=C(C)[C@@H]1CC[C@]2(C(=O)N3C[C@H](OCCOC)C[C@H]3c3nc(-c4ccccc4)c[nH]3)CC[C@]3(C)[C@H](CC[C@@H]4[C@@]5(C)CC[C@H](OC(=O)CC(C)(C)C(=O)O)C(C)(C)[C@@H]5CC[C@]43C)[C@@H]12 [Compound 43]: 333
C=C(C)[C@@H]1CC[C@]2(C(=O)N3C[C@H](OC)C[C@H]3c3nc(-c4ccccc4)c[nH]3)CC[C@]3(C)[C@H](CC[C@@H]4[C@@]5(C)CC[C@H](OC(=O)[C@H]6C[C@@H](C(=O)O)C6(C)C)C(C)(C)[C@@H]5CC[C@]43C)[C@@H]12 [Compound 32]: 316
C=C(C)[C@@H]1CC[C@]2(C(=O)N3CCC[C@H]3c3nc(C(C)(C)C)c[nH]3)CC[C@]3(C)[C@H](CC[C@@H]4[C@@]5(C)CC[C@H](OC(=O)[C@H]6C[C@@H](C(=O)O)C6(C)C)C(C)(C)[C@@H]5CC[C@]43C)[C@@H]12 [Compound 18]: 409
C=C(C)[C@@H]1CC[C@]2(C(=O)N3CCC[C@H]3c3ncc(-c4ccc(F)cc4)[nH]3)CC[C@]3(C)[C@H](CC[C@@H]4[C@@]5(C)CC[C@H](OC(=O)CC(C)(C)CC(=O)O)C(C)(C)[C@@H]5CC[C@]43C)[C@@H]12 [Compound 41]: 258

Batch request: AUC(0-t) per item, same order as input.
1. C=C(C)[C@@H]1CC[C@]2(C(=O)N3CCC[C@H]3c3nc(-c4ccccc4)co3)CC[C@]3(C)[C@H](CC[C@@H]4[C@@]5(C)CC[C@H](OC(=O)[C@H]6C[C@@H](C(=O)O)C6(C)C)C(C)(C)[C@@H]5CC[C@]43C)[C@@H]12 [Compound 17]
2. C=C(C)[C@@H]1CC[C@]2(C(=O)N3CCC[C@H]3c3ncc(C(C)(C)C)o3)CC[C@]3(C)[C@H](CC[C@@H]4[C@@]5(C)CC[C@H](OC(=O)[C@H]6C[C@@H](C(=O)O)C6(C)C)C(C)(C)[C@@H]5CC[C@]43C)[C@@H]12 [Compound 16]
3. C=C(C)[C@@H]1CC[C@]2(C(=O)N3C4CCC3CC(n3c(C)nnc3C(C)C)C4)CC[C@]3(C)[C@H](CC[C@@H]4[C@@]5(C)CC[C@H](OC(=O)CC(C)(C)C(=O)O)C(C)(C)[C@@H]5CC[C@]43C)[C@@H]12 (some centres unmarked) [Compound 49]
4. CC(C)(CC(=O)O)CC(=O)O[C@H]1CC[C@]2(C)[C@H]3CC[C@@H]4[C@H]5[C@H](C6(C)CC6)CC[C@]5(C(=O)N5CCC[C@H]5c5ncc(-c6ccccn6)[nH]5)CC[C@@]4(C)[C@]3(C)CC[C@H]2C1(C)C [Compound 63]

219
229
111
120
